assay: RP, Waters Symmetry C18, 100 × 2.1 mm; A: water + 0.1% formic acid, pH 3; B: acetonitrile + 0.1% formic acid, pH 3; gradient (min/%B) 0/5 24/95 29/95 29.1/5; conditions: stereoisomer not certain
Field: LC retention time. Provide a value for each of the compounds that follow.
Return type: number; implicit unit min.

input: State the recorded LC retention time for this entry: O=c1c(-c2ccc(O)cc2)coc2cc(O)cc(O)c12
output: 13.1

input: What do you get for c1coc(CNc2ncnc3nc[nH]c23)c1 ?
output: 6.57

input: Input COc1cc(C=CC(=O)O)cc(OC)c1OC
output: 12.3

input: Try the compound Oc1ccc(C=Cc2cc(O)cc(O)c2)cc1
output: 11.5

input: What do we get for COc1ccc2c(c1OC)C(=O)OC2C1c2c(cc3c(c2OC)OCO3)CCN1C (stereo not drawn) ?
output: 10

input: What about NC(=O)c1ccc[n+](C2OC(COP(=O)(O)OP(=O)(O)OCC3OC(n4cnc5c(N)ncnc54)C(O)C3O)C(O)C2O)c1 (stereo not drawn) [Nicotinamide_dinucleotide] ?
output: 1.2

input: Entry to check: Cc1cc(=O)oc2cc(OC3OC(C(=O)O)C(O)C(O)C3O)ccc12 (stereo not drawn) [4-Methylumbelliferylglucuronide]
output: 8.77

input: Continue with CCC1CN2CCc3cc(OC)c(OC)cc3C2CC1CC1NCCc2cc(OC)c(OC)cc21 (stereo not drawn)
output: 7.62

input: Also, CCC1OC(=O)C(C)C(OC2CC(C)(OC)C(O)C(C)O2)C(C)C(OC2OC(C)CC(N(C)C)C2O)C(C)(O)CC(C)C(=O)C(C)C(O)C1(C)O (stereo not drawn) please.
output: 11.2

input: Another compound: O=c1c(O)c(-c2ccc(O)c(O)c2)oc2cc(O)cc(O)c12
output: 12.2

input: Subsequent entry: O=C(O)c1c[nH]c2ccccc12
output: 10.5

input: Quick one: Cc1cc2nc3cc(C)c(N)cc3[n+](-c3ccccc3)c2cc1N
output: 10.9

input: Then COc1ccc2cc3[n+](cc2c1OC)CCc1cc2c(cc1-3)OCO2 ?
output: 9.9

input: Same thing, different compound: NC(Cc1ccccc1)C(=O)O (stereo not drawn)
output: 2.27

input: One more compound: O=c1cc(-c2ccc(O)c(-c3c(O)cc(O)c4c(=O)cc(-c5ccc(O)cc5)oc34)c2)oc2cc(O)cc(O)c12
output: 14.2

input: Same question, CC1NCCc2cc(O)c(O)cc21 (stereo not drawn) this time
output: 1.08

input: Would you mind doing COc1cc(C=CC(=O)OCC[N+](C)(C)C)cc(OC)c1O as well?
output: 6.46

input: Likewise for Oc1cc(O)c2c(c1)OC(c1ccc(O)c(O)c1)C(O)C2 (single isomer, unassigned; (-)) [(-)-Epicatechin] ?
output: 7.82

input: Try CC(C)C(NC(=O)Cc1c[nH]c2ccccc12)C(=O)O (stereo not drawn) next.
output: 12.1

input: Try this compound next: COc1cc(O)c(CC=C(C)C)c(O)c1C(=O)C=Cc1ccc(O)cc1
output: 18.5

input: Would you kindly repeat that for NC(Cc1c[nH]c2ccccc12)C(=O)O (stereo not drawn) ?
output: 4.07

input: Try this compound too: NCCc1ccc(O)cc1
output: 8.45

input: Now consider COC(=O)C1C2CC3c4[nH]c5cc(OC)ccc5c4CCN3CC2CC(OC(=O)c2cc(OC)c(OC)c(OC)c2)C1OC (stereo not drawn) and answer again.
output: 12.6

input: Consider next the compound C=CC1CN2CCC1CC2C(O)c1ccnc2ccccc12 (stereo not drawn) in the same way.
output: 3.47

input: Now give it for COc1ccccc1C(=O)O too.
output: 10.1

input: COC1C=COC2(C)Oc3c(C)c(O)c4c(O)c(c(C=NN5CCN(C)CC5)c(O)c4c3C2=O)NC(=O)C(C)=CC=CC(C)C(O)C(C)C(O)C(C)C(OC(C)=O)C1C (stereo not drawn) ?
output: 15.1

input: Next compound: O=c1c(O)c(-c2ccc(O)cc2)oc2cc(O)cc(O)c12
output: 13.3

input: // repeat for C=C(C)C1Cc2c(ccc3c2OC2COc4cc(OC)c(OC)cc4C2C3=O)O1 (stereo not drawn) and report
output: 18

input: And the next one, CC1OC(OCC2OC(Oc3c(-c4ccc(O)c(O)c4)oc4cc(O)cc(O)c4c3=O)C(O)C(O)C2O)C(O)C(O)C1O (stereo not drawn) ?
output: 9.72

input: Next compound: COc1c2ccoc2cc2oc(=O)ccc12
output: 14.5

input: Let us now turn to CN1CCc2cccc3c2C1Cc1ccc(O)c(O)c1-3 (stereo not drawn)
output: 7.2

input: Now this one: O=C(CCc1ccc(O)cc1)c1c(O)cc(O)cc1OC1OC(CO)C(O)C(O)C1O (stereo not drawn)
output: 11.1

input: Follow-up entry: COc1ccc(CC2c3cc(OC)c(OC)cc3CCN2C)cc1OC (stereo not drawn)
output: 8.39

Measured values drawn from the RepoRT retention time repository (doi:10.1021/ac101825k) for this set.
